Tested on: rodent lifetime carcinogenesis bioassay, tumor incidence TD50
Test: carcinogenic potency in animals, long-term in vivo studies, CPDB compilation (AID 1745844)
Conditions: rat; strain F344/DuCrj; females; in drinking water; site: oral cavity; lesion: papilloma; dosed 97 weeks; study length 112 weeks
PROPERTY MEASURED: TD50

QUERY: Provide measured TD50 value, entry: CCOC(=O)N(CC)N=O
RESULT: 3.02 mg/kg/day

====

Tested on: rodent lifetime carcinogenesis bioassay, tumor incidence TD50
Experiment: carcinogenic potency in animals, long-term in vivo studies, CPDB compilation (AID 1745844)
Conditions: mouse; strain B6C3F1; females; in feed; site: any site (literature study); lesion: malignant tumor; dosed 80 weeks; study length 90 weeks
PROPERTY MEASURED: TD50

QUERY: Supply recorded TD50 for Cc1c([N+](=O)[O-])c(C)c([N+](=O)[O-])c(C(C)(C)C)c1[N+](=O)[O-] here.
RESULT: 418 mg/kg/day
